- assay-protocol: in vitro
- condition-parameters: rat, plasma
property-measured: fraction unbound at 1 µM

A selection of reference data follows.
C[C@@](CCN1Cc2cc(C#CC#C[C@H]3C[C@@H]3[C@@H](O)CO)cn2C1=O)(C(=O)NO)S(C)(=O)=O    0.018
C[C@@](CCN1Cc2cc(C#CC#CC3CN(CCO)C3)cn2C1=O)(C(=O)NO)S(C)(=O)=O    0.301
C[C@@](CCN1Cc2cc(C#CC#C[C@@H]3C[C@@]3(F)CO)cn2C1=O)(C(=O)NO)S(C)(=O)=O    0.017
C[C@@](CCN1Cc2cc(C#CC#C[C@H]3C[C@@H]3CO)cn2C1=O)(C(=O)NO)S(C)(=O)=O    0.008
C[C@@](CCN1Cc2cc(C#CC#CC3CN(CCF)C3)cn2C1=O)(C(=O)NO)S(C)(=O)=O    0.067
C[C@@](CCN1Cc2cc(C#CC#CC3(N)CC3)cn2C1=O)(C(=O)NO)S(C)(=O)=O    0.111

Short answer for CN1CC(C#CC#Cc2cc3n(c2)C(=O)N(CC[C@](C)(C(=O)NO)S(C)(=O)=O)C3)C1 : fraction unbound at 1 µM was 0.19

---

- assay-protocol: physchem
- condition-parameters: n-octanol/phosphate buffer, pH 7.4
property-measured: logD
Could you keep your reply to the number by itself?

C[C@@](CCN1Cc2cc(C#CC#CC3(F)CNC3)cn2C1=O)(C(=O)NO)S(C)(=O)=O    0.3
CCN1CC(C#CC#Cc2cc3n(c2)C(=O)N(CC[C@](C)(C(=O)NO)S(C)(=O)=O)C3)C1    0.6
C[C@@](CCN1Cc2cc(C#CC#CC3CN(CCO)C3)cn2C1=O)(C(=O)NO)S(C)(=O)=O    0.1
C[C@@](CCN1Cc2cc(C#CC#CC3(CN)CC3)cn2C1=O)(C(=O)NO)S(C)(=O)=O    -0.4
C[C@@](CCN1Cc2cc(C#CC#CC3(CO)CC3)cn2C1=O)(C(=O)NO)S(C)(=O)=O    0.9
C[C@@](CCN1Cc2cc(C#CC#C[C@H]3C[C@@H]3[C@@H](O)CO)cn2C1=O)(C(=O)NO)S(C)(=O)=O    0.5

Short answer for CN1CC(C#CC#Cc2cc3n(c2)C(=O)N(CC[C@](C)(C(=O)NO)S(C)(=O)=O)C3)C1 : logD was 0.3

Short answer for C[C@@](CCN1Cc2cc(C#CC#CC3CCN(C4COC4)CC3)cn2C1=O)(C(=O)NO)S(C)(=O)=O : logD was 1.1

---

- assay-protocol: in vitro
- condition-parameters: human, liver microsomes
property-measured: microsomal CLint at 1 µM

A selection of reference data follows.
C[C@@](CCN1Cc2cc(C#CC#C[C@@H]3C[C@@]3(F)CO)cn2C1=O)(C(=O)NO)S(C)(=O)=O    < 10 µL/min/mg
C[C@@](CCN1Cc2cc(C#CC#CC3CN(CCO)C3)cn2C1=O)(C(=O)NO)S(C)(=O)=O    14 µL/min/mg
C[C@@](CCN1Cc2cc(C#CC#CC3CN(CCF)C3)cn2C1=O)(C(=O)NO)S(C)(=O)=O    < 10 µL/min/mg
CN1CC(C#CC#Cc2cc3n(c2)C(=O)N(CC[C@](C)(C(=O)NO)S(C)(=O)=O)C3)C1    48 µL/min/mg
C[C@@](CCN1Cc2cc(C#CC#C[C@H]3C[C@@H]3[C@@H](O)CO)cn2C1=O)(C(=O)NO)S(C)(=O)=O    < 10 µL/min/mg
C[C@@](CCN1Cc2cc(C#CC#CC3(N)CC3)cn2C1=O)(C(=O)NO)S(C)(=O)=O    < 10 µL/min/mg

Next up:
Short answer for C[C@@](CCN1Cc2cc(C#CC#C[C@H]3C[C@@H]3CO)cn2C1=O)(C(=O)NO)S(C)(=O)=O : microsomal CLint at 1 µM was < 10 µL/min/mg
